Where do these numbers come from? They come from PubChem BioAssay (NCI).

- Test system: T-47D breast
- measurement-notes: NCI-60 one-dose screen, 48 h
- condition-summary: 10 µM unless noted
The panel holds about 83,000 compounds, 20% with a hit somewhere; the sample as a whole holds those more often. Calls of active or inactive are those of the source. How the source made its calls: active means growth percent below 10; inactive means the rest.
API: response.call in active, inactive

Problem: What outcome does the record of this test show for `Cc1ccc(C(=O)Nc2nc3c(s2)CN(Cc2ccccc2)CC3)cn1` ?
Result: inactive

Problem: Test call for this compound, please: `Cc1ccc(Cc2cnc(NC(=O)c3cc(C)oc3C)s2)cc1`
Result: inactive

Problem: Status in this test for CC(Sc1ccccc1)C(=O)O (configuration not stated) ?
Result: inactive

Problem: For `COc1ccc(C/C(C)=C(/c2ccc(OCCN3CCCCCC3)cc2)c2ccc(OC(=O)c3ccccc3)cc2)cc1` , what call appears in the results of this test?
Result: inactive

Problem: Status in this test for COc1nc(=O)n(C2C=CC(=O)O2)cc1F (configuration not stated) ?
Result: inactive

Problem: Any idea what this test logged for `Cc1c(CC(=O)OCCO)cc(-c2ccc(Cl)cc2)n1-c1ccccc1` ?
Result: inactive

Problem: // outcome(item) with item = COc1ccc(C2=C(CN)C(O)NC(=NCC(=O)c3ccc4ccccc4c3)N2)cc1 (configuration not stated)
Result: inactive

Problem: For `Clc1cccc(Nc2ncnc3ccc(-c4cncc(-n5cnnn5)c4)cc23)c1` , which call appears in the assay record?
Result: inactive

Problem: GET /call?item= `Nc1ncc(-c2ccc3ncnc(N4CCc5ccc(Cl)cc54)c3c2)cc1C(F)(F)F` returns the recorded outcome of this test.
Result: inactive

Problem: What outcome does the record of this test show for `Cc1ccccc1SSc1ccccc1C` ?
Result: inactive

Problem: GET /call?item= `CN1CCN(c2ccc(Nc3ncc(C(N)=O)c(NCCCNC(=O)C4CCC4)n3)cc2)CC1` returns the recorded outcome of this test.
Result: inactive

Problem: Which result was noted for this compound in the test: `CC1(C)C(N)=Nc2cc(OCCCN3Cc4ccc(OCCc5cn(CC(=O)N6CCC(CCN7CCCC7)CC6)nn5)cc4C3)c(OCC3CC3)cc21`
Result: inactive

Problem: // param item: `Cc1ccc(NC(=O)N/C(N)=N/c2nc(=O)c3ccccc3s2)cc1` ; yields the recorded call
Result: inactive

Problem: Recorded call for `COc1cc(/C=C2/C=C(c3ccc(C(C)(C)C)cc3)N(CCc3ccc(S(N)(=O)=O)cc3)C2=O)cc(OC)c1OC` ?
Result: inactive

Problem: // param item: `Cc1ccc2[nH]c(=S)[nH]c(=O)c2c1` ; yields the recorded call
Result: inactive

Problem: Please let me know the test result on file for `O=C1Nc2ccccc2/C1=C/c1cccn1CCCCCn1c2ccccc2c(=O)c2ccccc21` .
Result: active

Problem: How did this test come out for `CCN(CC)CCOc1ccccc1C` ?
Result: inactive

Problem: Short answer needed: outcome of this test for Cc1nc2sc(C(=O)Nc3cccc(Cl)c3C)c(N)c2cc1C(O)c1ccccc1 (configuration not stated) ?
Result: inactive

Problem: What did the test return for `Clc1ccc(CNc2ccc3nc(CCC4CCCCC4)[nH]c3c2)cc1` ?
Result: inactive

Problem: Kindly provide the recorded test outcome for the following compound: `COc1ccc(C(=O)N/N=C/c2ccc(O)cc2O)cc1Nc1ccnc(C(F)(F)F)c1`
Result: inactive

Problem: Could you kindly confirm the outcome this assay logged for `COc1ccc(/C=C2\COc3ccc(O)c(O)c3C2=O)c(OC)c1OC` ?
Result: inactive

Problem: What outcome does the record of this test show for `N=C(N)c1ccc(-c2ccc(-c3ccc(Cl)c(Cl)c3)s2)cc1` ?
Result: inactive
